src = the supplement of paper PMC11908140

B1: library; numbered along this chain (parent)
chain: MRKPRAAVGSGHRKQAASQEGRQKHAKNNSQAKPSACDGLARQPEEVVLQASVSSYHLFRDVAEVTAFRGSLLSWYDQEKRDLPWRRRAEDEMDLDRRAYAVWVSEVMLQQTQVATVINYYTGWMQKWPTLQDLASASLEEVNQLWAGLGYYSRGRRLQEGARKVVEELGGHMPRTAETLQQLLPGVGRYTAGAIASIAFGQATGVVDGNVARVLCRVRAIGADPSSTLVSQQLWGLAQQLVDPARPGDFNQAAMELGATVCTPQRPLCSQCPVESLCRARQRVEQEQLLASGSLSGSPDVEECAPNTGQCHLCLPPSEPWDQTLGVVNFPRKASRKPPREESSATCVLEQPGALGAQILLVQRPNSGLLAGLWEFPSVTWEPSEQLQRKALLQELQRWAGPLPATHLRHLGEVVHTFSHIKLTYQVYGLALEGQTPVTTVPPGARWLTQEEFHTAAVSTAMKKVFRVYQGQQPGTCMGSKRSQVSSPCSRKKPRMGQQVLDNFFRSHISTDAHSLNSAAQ

variants of: B1; assay: 8OG:A repair function score (normalized; synonymous = 0, nonsense = -1) (normalized log-likelihood score); higher = more repair activity (WT-like); details: with 8OG:A DNA repair reporter (GFP) in HEK-293 MUTYH KO cells;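 note: cells sorted at 72 h after reporter transfection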
MEASURE: 8OG:A repair function score
Reply briefly: the number, and no unit.

input: Given V242H , state its recorded 8OG:A repair function score.
output: -0.806

input: Repeat with R2Q
output: -0.0466

input: Repeat with Q288H
output: 0.00465

input: Repeat with S344A
output: 0.0466

input: Repeat with A520S
output: -0.0114

input: Repeat with P402F
output: -0.215

input: Repeat with S52L
output: 0.00142

input: Repeat with P299K
output: -0.0515

input: Repeat with E382G
output: -0.0795

input: Repeat with C304S
output: -0.289

input: Repeat with H172L
output: -0.0966

input: Repeat with L237H
output: -0.433

input: Repeat with E452L
output: -0.252

input: Repeat with V166Y
output: -0.184

input: Repeat with V142N
output: -1.86

input: Repeat with V261D
output: -0.737

input: Repeat with T308W
output: 0.00192

input: Repeat with E341Q
output: -0.0264

input: Repeat with E79I
output: 0.00691

input: Repeat with A519L
output: -0.012

input: Repeat with M255R
output: -1.03

input: Repeat with A305I
output: 0.00729

input: Repeat with G297W
output: -0.206

input: Repeat with L315P
output: -0.0779

input: Repeat with C278K
output: -1.26

input: Repeat with A354Y
output: -0.11

input: Repeat with R340V
output: -0.304

input: Repeat with L408A
output: -0.717

input: Repeat with H57L
output: -0.734

input: Repeat with R495T
output: 0.0177

input: Repeat with P488Q
output: -0.00562

input: Repeat with M125W
output: -0.408

input: Repeat with V415H
output: -0.115

input: Repeat with R482M
output: -0.00466

input: Repeat with N517Y
output: -0.0106

input: Repeat with G236I
output: 0.00703

input: Repeat with A162C
output: -0.175

input: Repeat with R219T
output: -0.638

input: Repeat with K493E
output: 0.0199

input: Repeat with S226F
output: -0.371

input: Repeat with R86C
output: -0.587

input: Repeat with S197L
output: -1.13

input: Repeat with E178R
output: 0.0879

input: Repeat with R81Y
output: -0.359

input: Repeat with V284W
output: -0.0406

input: Repeat with I359Y
output: -0.266
